Value source: the supplement of paper PMC10567573

# key: entry, value: protein stability index
B1: HMOX1 (parent)
chain: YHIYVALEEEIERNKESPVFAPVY

# Variants of: B1
# assay overview: protein stability index of a GFP-peptide fusion (GPS, HEK-293T) (PSI 1-6); higher = more stable;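 also: lentivirally expressed fusions sorted by FACS into six bins by GFP to DsRed ratio, PSI derived from sequencing read proportions per bin multiplied by bin number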
# experimental conditions: c terminus: a fixed tail appended
// no unit, no text: just the number

Field: example entries. Status: answers known.
P18N 2.36
V5C 1.79
A21N 2.31
F20K 2.27
H2F 2.25

Now look at this entry.
For Y4K the variant record lists protein stability index as 2.41
